target: human BCL-XLΔC24 (human, UniProt Q07817-1 1-209); experiment: ELISA
Sequence (Q07817 1-209, stated change not applied): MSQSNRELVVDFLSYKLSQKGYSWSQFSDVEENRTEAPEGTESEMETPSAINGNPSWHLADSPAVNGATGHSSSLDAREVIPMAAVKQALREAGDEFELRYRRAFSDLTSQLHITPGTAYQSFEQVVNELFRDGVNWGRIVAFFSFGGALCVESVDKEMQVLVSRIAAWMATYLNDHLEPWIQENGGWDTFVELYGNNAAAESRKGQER
pIC50: −log10 of the molar value.
endpointLabel: pIC50

Consider the binder PSSTMGQVGRQLAIIEDDINRRYDSE [phage-displayed human BAK BH3 peptide G82E] and give its measured pIC50.
< 5.00
